- experimentalTarget: … (SEQ ID NO: 1) HLA-A*24 complex, reduced form of the peptide (human)
- test: SPR, soluble TCR over immobilised biotinylated pHLA, equilibrium, 25 C
Each record is given fulfilled if its reported Kd is strictly below 50 µM. Records at or above 50 µM are given not fulfilled.

[
  {
    "binder": "S1 (TCR) alpha TRAV24 CDR3: AFISWRSSGDKLT beta TRBV25 CDR3: ASSSPLSGPLASPLH",
    "groupLabel": "not fulfilled"
  },
  {
    "binder": "S4 (TCR) alpha TRAV12-2 CDR3: AVNGPNNAGNMLT beta TRBV6-2/3 CDR3: ASSPGGFGQPQH",
    "groupLabel": "fulfilled"
  },
  {
    "binder": "S10 (TCR) alpha TRAV27 CDR3: GAIWSTLGRLY beta TRBV5-6 CDR3: SSFKGVNQPQH",
    "groupLabel": "not fulfilled"
  },
  {
    "binder": "S5 (TCR) alpha TRAV12-2 CDR3: AVNKGFQKLV beta TRBV6-1 CDR3: ASSEGWGGQPQH",
    "groupLabel": "fulfilled"
  },
  {
    "binder": "S6 (TCR) alpha TRAV21 CDR3: AVPNPSARQLT beta TRBV7-9 CDR3: ASSLEGQGVEQF",
    "groupLabel": "not fulfilled"
  }
]
